- EXPERIMENT_SUMMARY: yeast display, Sf9 membrane polyspecificity reagent, FACS + sequencing; frameworks hold sequencing errors
MEASUREMENT_NAME: polyreactivity (PSR sort gate)

// worked examples, polyreactivity (PSR sort gate) included
[
  {
    "RECORD_SEQUENCE": "QVQLEESGGGLVQAGGSLRVSCAPSGRTFGWYTMGWYRQAPGKERELVAVISSTGGRTYYADSVKGRFTISRDNAKNTVYLQMNSLKPEDTAVYYCAAEYVSAKWESGYWGQGTQVTVSS",
    "polyreactivity (PSR sort gate)": "low polyreactivity"
  },
  {
    "RECORD_SEQUENCE": "QVQLVESGGGLVQAGGSLRLSCAASGSTFYYYAMGWYRQAPGKERELVAAINSSGGNTYYADSVKGRFTISRDNAKNTVYLQMNSLNPEDTAVYYCATEYYWLQDYDYWGHGTQVTVSS",
    "polyreactivity (PSR sort gate)": "low polyreactivity"
  },
  {
    "RECORD_SEQUENCE": "QVQLVESGGGLVQAGGSLRLSCAASGLIFVDNAMGWYRQAPGKERELVAAIDSGGRTYYADSVKGRFTISRDNAKNTVYLQMNSLKPEDTAVYYCAAPWRLFCLYDYWGQGTQVSVSS",
    "polyreactivity (PSR sort gate)": "low polyreactivity"
  },
  {
    "RECORD_SEQUENCE": "QVQLVESGGGLVQAGGSLRLSCAASGRIFGYYGMGWYRQAPGKERELVAAITDDGDSTYYADSVKGRFTISRDNAKNTVYLQMNSLKPEDTAVYYCNALGYYVNKMDYWGQGTQVTVSS",
    "polyreactivity (PSR sort gate)": "low polyreactivity"
  },
  {
    "RECORD_SEQUENCE": "QVQLVESGGGLVQAGGSLRLSCAASGRIFPYYAMGWYRQAPGKDRELVAAISWSGGRTYYADSVKGRFTISRDYAKNTVYLQMNSLKPDDNAVYFCAAGHSYRPYYYYGEYDYWGQGTQVTVSS",
    "polyreactivity (PSR sort gate)": "high polyreactivity"
  }
]

Value lookup for polyreactivity (PSR sort gate); key = "QVQLVESGGGLVQAGGSLRLSCAASGRIFRYYAMGWYRQAPGKEREFVAAINSSGVNTYYADSVKGRFTISRDNAKNTVYLQMNSLKPEDTAVYYCAFLGMDYWGQGTQVTVSS"
high polyreactivity

Value lookup for polyreactivity (PSR sort gate); key = "QVQLVESGGGLVQAGGSLRLSCAASGFIFRSYAMGWYRQAPGKERELVAVISRRGVNTHYADSVKGRFTISRDNAKNTVNLQMNSLKPEDTAVYYCAKGLTALGDYWGQGTQVTVSS"
high polyreactivity

Value lookup for polyreactivity (PSR sort gate); key = "QVQLVESGGGLVQAGGSLRLSCAASGSTFGYYAMGWYRQAPGKERELVAAITRGGGRTYYADSVKGRFTISRDNAKNTVYLQMNSLKPEDTAVYYCAAVEPTREYYYWGQGTQVTVSS"
high polyreactivity

Value lookup for polyreactivity (PSR sort gate); key = "QVQLVESGGGLVQAGGSLRLSCAASGSNFKLYSMGWYRQAPGKERELVATIRWSGGSTYYADSVKGRFTISRDNAKNTVYLQMNSLKPEDTAVYYCAARRVRPNGYTSSPLDYWGQGTQVTVSS"
high polyreactivity

Value lookup for polyreactivity (PSR sort gate); key = "QVQLVESGGGLVQAGGRLRLSCAASGLTFEYNAMGWYRQAPGKERELVASISSGGGTNYADSVKGRFTISRDNAKNTVYLQMNSLKPVDTAVYYCATDNYDWSCWAFRGYWYDYWGQGTQVTVSS"
low polyreactivity

Value lookup for polyreactivity (PSR sort gate); key = "QVQLVESGGGFVPAGGSLRLSCAASGSTFIPYAMGWYRQAPGKERELVAAISSGGRTYYADSVKGRFTISRDNAKNTVYLQMNSVKPEDTAGYYCASTTSPSSARYYYWGQGTQVTVSS"
high polyreactivity

====

- EXPERIMENT_SUMMARY: yeast display, Sf9 membrane polyspecificity reagent, FACS + sequencing; frameworks hold sequencing errors
MEASUREMENT_NAME: polyreactivity (PSR sort gate)

[
  {
    "RECORD_SEQUENCE": "QVQLVESGGGLVQAGGSLRLSCAASGFIFQYYAMGWYREAPGKERELVAAISKTGGSTYYADSVKGRFTISRDNAKNTVYLQMNSLKPEDTAVYYCAVARSAYYRGNHWGQGSQVTVSS",
    "polyreactivity (PSR sort gate)": "high polyreactivity"
  },
  {
    "RECORD_SEQUENCE": "QVQLVESGGGLVQAGGSLRLSCAASGFTFFSNAMGWYRQAPGKEREFVASISRSGGRTYYADSVKGRFTISRDNAKNTVYLQMNSLKPEDTAVYYCAADVPYYLHNHRYGYWGQGTQVTVSS",
    "polyreactivity (PSR sort gate)": "high polyreactivity"
  },
  {
    "RECORD_SEQUENCE": "QVQLVESGGGLVQAGGSLRLSCAASGLTFPFYTMGWYRQAPGKERELVAAISRRGGSTYYADSVKGRFTISRDNAKNTDYLQMNSMKPVDTAVYYCAADKYSWYDYWGQGTEVTVSS",
    "polyreactivity (PSR sort gate)": "low polyreactivity"
  },
  {
    "RECORD_SEQUENCE": "QVQLVESGGGLVQAGGSLRLSCAASGSIFKTNAMGWYRQAPGKERELVAGISNGGSTNYADSVKGRFTISRDNAKNTVYFQMNSLKPEDTAVYYCAAEYEYLWSQYLTDYGYDSWGQGTQVTVSS",
    "polyreactivity (PSR sort gate)": "low polyreactivity"
  },
  {
    "RECORD_SEQUENCE": "QVQLVESGGGLVQAGGSLRLSCAASGFTLAFYGMGWYRQAPGKERELVAAISRSGGSTYYADSVKGRFTISRDNAKNTVYLQMNSLKPEDTAVYYCAAAFRAGAVYGYYWGQGTQVTVSS",
    "polyreactivity (PSR sort gate)": "high polyreactivity"
  },
  {
    "RECORD_SEQUENCE": "QVQLVESGGGLVQAGGSLRLSCAASGFIFIYNAMGWYRQAPGKERELVAAISRSGGSTYYADSVKGRFTISRDNAKNTVYLHMNSLKPEDTAVYYCNARPGSRYYGYRLYYYWGQGTQVTVSS",
    "polyreactivity (PSR sort gate)": "high polyreactivity"
  }
]

Value lookup for polyreactivity (PSR sort gate); key = "QVQLVESGGGLVQAGGSLRLSCAASGRIFGGYAMGWYRPAPGKERELVAAISGGGSTNYADSVKGRFTISRDNAKNTVYLQMNSLKPEDTAVYYCAAQYWSRRFYWYGYWGQGTQVTVSS"
high polyreactivity

Value lookup for polyreactivity (PSR sort gate); key = "QVQLQESGGGLVQAGGSLRLSCAASGTISDRAGMGWYRQAPAKNAIVANIDRGTNTNYADSVKGRFTISRDNAKNTVYLQMNSLKPEDTAVYNCAADGRYYIYLDYWGQGTQVTVSS"
low polyreactivity

Value lookup for polyreactivity (PSR sort gate); key = "QVQLVESGGGLVQAGGSLRLSCAASGSTFVPNAMGWYRQAPGKERELVAAISSVGSTNYADSVKGRFTISRDNAKNTVYLQMNSLKPEDTAVYYCAVRYPWRYFKYGYWGQGTQVTVSS"
low polyreactivity

Value lookup for polyreactivity (PSR sort gate); key = "QVQLVESGGGLVQAGGSLRLSCAASGRIFRYNAMGWYRQAPGKERELVAAISRSGGSTYYADSVKGRFTISRDNAKNTVYLQINSLKPEDTAVYYCAVGSPYGGRAPWVRGGDYWGQGTQVTVSS"
high polyreactivity

Value lookup for polyreactivity (PSR sort gate); key = "QVHLVESGGGIVQAGGSLRLSSAATGRTFPYNAMGWYRQAPGKERELVAAISSGGSTNYADSVKGRFTISRDNAKNTVYLQMNSLKPEDTAVYYCATKYQRRPYRYYYWGQGTQVTVSS"
low polyreactivity

====

- EXPERIMENT_SUMMARY: yeast display, Sf9 membrane polyspecificity reagent, FACS + sequencing; frameworks hold sequencing errors
MEASUREMENT_NAME: polyreactivity (PSR sort gate)

[
  {
    "RECORD_SEQUENCE": "QVQLVESGGGLVQAGGSLRLSCAASGRIFPKYAMGWYRQAPGKERELVAAITGIGTSTYYADSVKGRFTISRDNAKNTVYLQMNSLKPEDTAVYYCAADTWTIVDYGYWGQGTQVTVSS",
    "polyreactivity (PSR sort gate)": "low polyreactivity"
  },
  {
    "RECORD_SEQUENCE": "QVQLVESGGGLVQAGGSLRLSCAASGFTFYYYAMGWYRQAPGKERELVAAISWSSGRTYYADSVKGRFTISRDNAKNTVYLQMNSLKPEDTAVYYCAADGYAGSWWYDYWGQCTQVTVSS",
    "polyreactivity (PSR sort gate)": "high polyreactivity"
  },
  {
    "RECORD_SEQUENCE": "QVQLVESGGGLVQAGGSLRLICAASGLTFADYAMGWYRPAPGKERELVAAISRRGGSTYYADSVKGRFTISRDNAKNTVYLQMNSLKPEDTAVYYCAAYAYDVAFKRYKFDYWGQGTEVTVSS",
    "polyreactivity (PSR sort gate)": "high polyreactivity"
  },
  {
    "RECORD_SEQUENCE": "QVQLVESGGGLVQAGGSLRLSCAASGNTVDGNAMGWYRPAPGKERELVAAINYSGASTYYADSVKGRFTISRDNAKNTVYLQINSLKPEDTAVYYCAADDYTASDRYWHDYWGQGTQVTVSS",
    "polyreactivity (PSR sort gate)": "low polyreactivity"
  }
]

Please find the next sequence below.
Value lookup for polyreactivity (PSR sort gate); key = "QVQLVESGGGLVQAGGSLRLSCAASGSIFAVYTMGWYRQAPGKEREFVAAITKSGGRTYYADSVKGRFTISRDNAKNTVYLQMNSLNPEDTAFYYCARRRTIPYTLVDYDSWGQGTQVTVSS"
low polyreactivity
